# Tested on: HCT116
# methodDescription: cell viability (CellTiter-Glo) relative to plate median (fraction of plate median); higher = more viable cells
# testContext: 5 µM; treatment time 24 h; reporter: TCF4/Wnt
valueType: cell viability

| molecule | systemTested | cell viability |
| --- | --- | --- |
| O=C(Oc1cc(OC(=O)c2ccccc2)c2c(c1)O[C@H](c1ccc(OC(=O)c3ccccc3)c(OC(=O)c3ccccc3)c1)[C@@H](OC(=O)c1ccccc1)C2)c1ccccc1 | HCT116 | 1.06 |
| COC(=O)C1=C(C)NC(C)=C(C(=O)OCCN(C)Cc2ccccc2)C1c1cccc([N+](=O)[O-])c1 (centres undefined) | HCT116 | 1.02 |
| COc1ccc(C=CC(=O)O)cc1OC | HCT116 | 1.06 |
| Nc1nc(=O)c2nc(CNc3ccc(C(=O)N[C@@H](CCC(=O)O)C(=O)O)cc3)cnc2[nH]1 | HCT116 | 0.977 |

*Q* Give the value of cell viability reported for the following: NNCCc1ccccc1
*A* 0.943

*Q* Give the value of cell viability reported for the following: COc1cc(C(=O)N2CCOCC2)cc(OC)c1OC
*A* 1.03

*Q* Give the value of cell viability reported for the following: CCCCCc1c2c(cc(O)c1C(=O)O)OC(=O)c1c(cc(OC)cc1C(=O)CCCC)O2
*A* 0.973

*Q* Give the value of cell viability reported for the following: O=C1C(O)=C(O)C(=O)C(O)=C1O
*A* 0.997

*Q* Give the value of cell viability reported for the following: Cc1ccc(C(=O)Nc2ccc(S(=O)(=O)O)c3cc(S(=O)(=O)O)cc(S(=O)(=O)O)c23)cc1NC(=O)c1cccc(NC(=O)Nc2cccc(C(=O)Nc3cc(C(=O)Nc4ccc(S(=O)(=O)O)c5cc(S(=O)(=O)O)cc(S(=O)(=O)O)c45)ccc3C)c2)c1
*A* 0.929

====

# Test system: DLD1
# methodDescription: TCF/Wnt firefly luciferase reporter signal relative to plate median (fraction of plate median); higher = higher Wnt reporter signal
# testContext: 10 µM; treatment time 24 h; reporter: 7TFP
Reported TCF/Wnt firefly luciferase reporter signal values for the following compounds.
Returns: the value as a bare number; no unit string appended.

| compound | resultValue |
| --- | --- |
| CCCS(=O)(=O)Nc1ccc(F)c(C(=O)c2c[nH]c3ncc(Cl)cc23)c1F | 0.775 |
| CC(C)(C)c1cc(/C=C(\C#N)C(N)=S)cc(C(C)(C)C)c1O | 0.707 |

*Q* Give the value of TCF/Wnt firefly luciferase reporter signal reported for the following: O=c1cc(N2CCOCC2)oc2c(-c3cccc4c3sc3ccccc34)cccc12
*A* 1.19

====

# Test system: HCT116
# methodDescription: cell viability (CellTiter-Glo) relative to plate median (fraction of plate median); higher = more viable cells
# testContext: 5 µM; treatment time 24 h; reporter: TCF4/Wnt
valueType: cell viability
Returns: the value as a bare number; no unit string appended.

Examples with answers:
| compound | cell viability |
| --- | --- |
| O=c1n(CCCN2CCN(c3cccc(Cl)c3)CC2)nc2ccccn12 | 0.987 |
| O=C(C1CCCCC1)N1CC(=O)N2CCc3ccccc3C2C1 (stereo not drawn) | 0.984 |
| COc1ccc2c(c1)OC/C(=C/c1ccc(OC)c(OC)c1)C2=O | 0.989 |

*Q* Give the value of cell viability reported for the following: CON
*A* 1.01

*Q* Give the value of cell viability reported for the following: CC1(O)CC2C(CC1O)C2(C)C (stereo not drawn)
*A* 0.998

====

Reported cell viability values for the following molecules.
# Test system: DLD1
# methodDescription: cell viability (CellTiter-Glo) relative to plate median (fraction of plate median); higher = more viable cells
# testContext: 5 µM; treatment time 24 h; reporter: 7TFP
Returns: the value as a bare number; no unit string appended.

| molecule | resultValue |
| --- | --- |
| COc1ccc(-c2coc3cc(O)cc(O)c3c2=O)cc1 | 1.01 |
| C=CC(C1=CC(=O)C(OC)=CC1=O)c1ccccc1 (centres undefined) | 0.983 |
| O=c1c(O)c(-c2ccccc2)oc2ccccc12 | 0.992 |
| C[C@H](CCC(=O)O)[C@H]1CC[C@H]2[C@@H]3CC[C@@H]4C[C@H](O)CC[C@]4(C)[C@H]3C[C@H](O)[C@]12C | 0.982 |
| CC1(C)O[C@H]2CC(=O)OC[C@]23[C@H]2CC[C@@]4(C)[C@H](c5ccoc5)OC(=O)[C@H]5O[C@]54[C@]2(C)C(=O)C[C@@H]13 | 1.01 |
| COc1ccc([C@H]2COc3c(ccc(O)c3OC)C2)c(OC)c1O | 1.01 |
| O=C(O)[C@]1(O)C[C@@H](O)[C@@H](O)[C@H](O)C1 | 0.982 |
| C[C@H]1[C@H](C)CC[C@]2(C(=O)O)CC[C@]3(C)C(=CC[C@@H]4[C@@]5(C)CC[C@H](O)C(C)(C)[C@@H]5CC[C@]43C)[C@H]12 | 0.978 |

Now take the following molecule into account.
*Q* Give the value of cell viability reported for the following: NCCS
*A* 1.02

====

# Tested on: DLD1
# methodDescription: cell viability (CellTiter-Glo) relative to plate median (fraction of plate median); higher = more viable cells
# testContext: 5 µM; treatment time 24 h; reporter: 7TFP
valueType: cell viability
Returns: the value as a bare number; no unit string appended.

| compound | cell viability |
| --- | --- |
| CCCOc1ccc2[nH]c(NC(=O)OC)nc2c1 | 0.979 |
| O=C1O[C@H](CO)[C@@H](O)[C@H](O)[C@H]1O | 1 |
| CN(C)CCOC(c1ccc(Cl)cc1)c1ccccn1 (stereo unspecified) | 1 |
| CC(=O)N[C@@H](CC(=O)N[C@@H](CCC(=O)O)C(=O)O)C(=O)O | 1.01 |
| O=C(Nc1ccccc1)Nc1ccccc1 | 1.02 |

*Q* Give the value of cell viability reported for the following: NC[C@H](O)c1ccc(O)c(O)c1
*A* 1.02

====

# System: SW480
# methodDescription: TCF/Wnt firefly luciferase reporter signal relative to plate median (fraction of plate median); higher = higher Wnt reporter signal
# testContext: 5 µM; treatment time 24 h; reporter: 7TFP
valueType: TCF/Wnt firefly luciferase reporter signal
Returns: the value as a bare number; no unit string appended.

Examples with answers:
| molecule | resultValue |
| --- | --- |
| CC1(C)[C@@H](OC(=O)CCC(=O)O)CC[C@]2(C)[C@H]3C(=O)C=C4[C@@H]5C[C@@](C)(C(=O)O)CC[C@]5(C)CC[C@@]4(C)[C@]3(C)CC[C@@H]12 | 1.01 |
| O=C(CCCN1CCN(c2ccccn2)CC1)c1ccc(F)cc1 | 1.01 |
| CCN(CC)CCNc1ccc(CO)c2sc3ccccc3c(=O)c12 | 0.988 |
| COc1cc2cc3c4cc(OC)c(OC)cc4cc[n+]3c(C)c2cc1OC | 1.01 |
| CC(C)NCC(O)c1ccc2ccccc2c1 (stereo unspecified) | 1 |

Now take the following molecule into account.
*Q* Give the value of TCF/Wnt firefly luciferase reporter signal reported for the following: C[C@H]1CCC/C=C/C(=O)c2c(O)cc(O)cc2CC(=O)O1 [Dehydro-Curvularin]
*A* 1

====

# System: SW480
# methodDescription: cell viability (CellTiter-Glo) relative to plate median (fraction of plate median); higher = more viable cells
# testContext: 5 µM; treatment time 24 h; reporter: 7TFP
# note: exactly 1 is not below, so it is Not satisfied; use Satisfied for cell viability strictly under it

| compound | cat |
| --- | --- |
| COc1cc(C)c2c(c1C=O)Oc1c(c(C)c(O)c3c1C(O)OC3=O)OC2=O (configuration not stated) | Not satisfied |
| CO[C@H]1C[C@H](O[C@@H]2/C(C)=C/C[C@@H]3C[C@@H](C[C@]4(CC[C@H](C)[C@@H](C5CCCCC5)O4)O3)OC(=O)[C@@H]3C=C(C)/C(=N/O)[C@H]4OC/C(=C\C=C\[C@@H]2C)[C@]43O)O[C@@H](C)[C@@H]1O | Satisfied |

Could you now look at the following compound, please?
*Q* Answer whether the compound CN(C)CCOC(C)(c1ccccc1)c1ccccn1 (configuration not stated) has cell viability strictly less than 1
*A* Not satisfied

====

Reported cell viability values for the following compounds.
# System: SW480
# methodDescription: cell viability (CellTiter-Glo) relative to plate median (fraction of plate median); higher = more viable cells
# testContext: 10 µM; treatment time 24 h; reporter: 7TFP
Returns: the value as a bare number; no unit string appended.

Examples with answers:
| compound | cell viability |
| --- | --- |
| CCCS(=O)(=O)Nc1ccc(F)c(C(=O)c2c[nH]c3ncc(-c4ccc(Cl)cc4)cc23)c1F | 0.878 |
| N#CC1(c2ccc(NC(=O)c3cccnc3NCc3ccncc3)cc2)CCCC1 | 0.912 |
| COc1cccc(-c2cc(=O)c3ccccc3o2)c1N | 1 |

*Q* Give the value of cell viability reported for the following: FC(F)(F)c1ccc(/C=C/c2nc(COc3ccc(CCCCn4ccnn4)cc3)co2)cc1
*A* 0.911

*Q* Give the value of cell viability reported for the following: CCOc1cc2ncc(C#N)c(Nc3ccc(F)c(Cl)c3)c2cc1NC(=O)/C=C/CN(C)C [Pelitinib (EKB-569)]
*A* 1.28

*Q* Give the value of cell viability reported for the following: OCCn1cc(-c2cnc3nnn(Cc4ccc5ncccc5c4)c3n2)cn1
*A* 0.905

*Q* Give the value of cell viability reported for the following: CO[C@H]1C[C@@H]2CC[C@@H](C)[C@@](O)(O2)C(=O)C(=O)N2CCCC[C@H]2C(=O)O[C@H]([C@H](C)C[C@@H]2CC[C@@H](OC(=O)C(C)(CO)CO)[C@H](OC)C2)CC(=O)[C@H](C)/C=C(\C)[C@@H](O)[C@@H](OC)C(=O)[C@H](C)C[C@H](C)/C=C/C=C/C=C/1C
*A* 0.934

*Q* Give the value of cell viability reported for the following: CO[C@H]1C[C@@H]2CC[C@@H](C)[C@@](O)(O2)C(=O)C(=O)N2CCCC[C@H]2C(=O)O[C@H]([C@H](C)C[C@@H]2CC[C@@H](OP(C)(C)=O)[C@H](OC)C2)CC(=O)[C@H](C)/C=C(\C)[C@@H](O)[C@@H](OC)C(=O)[C@H](C)C[C@H](C)/C=C/C=C/C=C/1C [Deforolimus (Ridaforolimus)]
*A* 1.27
